Molecular target: T1, human TL1A extracellular domain with N-terminal HIS and FLAG tag (human, UniProt O95150 72-251)
T1 construct: the whole entry is named
T1 sequence: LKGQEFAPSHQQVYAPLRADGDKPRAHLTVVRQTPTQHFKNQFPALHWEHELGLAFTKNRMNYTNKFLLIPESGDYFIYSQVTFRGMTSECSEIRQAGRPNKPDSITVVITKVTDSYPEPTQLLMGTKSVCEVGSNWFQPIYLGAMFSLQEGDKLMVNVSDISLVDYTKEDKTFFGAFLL
Experiment: SPR Run 4, purified Ab captured on Protein A, TL1A 5 ug/mL, timepoint 44
// reported TL1A Binding Level (Early) per item
metric: TL1A Binding Level (Early) (RU)

320-353 (antibody, human IgG1, name in Kabat numbering, V domains shown, human IgG1, lambda) VH: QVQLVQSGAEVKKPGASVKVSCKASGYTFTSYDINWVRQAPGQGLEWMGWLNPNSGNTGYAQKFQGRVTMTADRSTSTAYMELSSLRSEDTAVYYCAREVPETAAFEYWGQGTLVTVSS VL: QSVLTQPPSVSGAPGQRVTISCTSSSSDIGAGLGVHWYQQLPGTAPKLLIEGYYNRPSGVPDRFSGSKSGTSASLTITGLLPEDEGDYYCQSYDGHLSALFGGGTKLTVLG: 97
320-343 (antibody, human IgG1, name in Kabat numbering, V domains shown, human IgG1, lambda) VH: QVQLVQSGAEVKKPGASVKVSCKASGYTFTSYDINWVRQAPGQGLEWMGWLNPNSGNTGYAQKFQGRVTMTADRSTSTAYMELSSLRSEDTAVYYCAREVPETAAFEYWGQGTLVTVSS VL: QSVLTQPPSVSGAPGQRVTISCTSSSSDIGAGLGVHWYQQLPGTAPKLLIEGYYNRPSGVPDRFSGSKSGTSASLTITGLLPEDEGDYYCQSYDDTLSALFGGGTKLTVLG: 121
320-341 (antibody, human IgG1, name in Kabat numbering, V domains shown, human IgG1, lambda) VH: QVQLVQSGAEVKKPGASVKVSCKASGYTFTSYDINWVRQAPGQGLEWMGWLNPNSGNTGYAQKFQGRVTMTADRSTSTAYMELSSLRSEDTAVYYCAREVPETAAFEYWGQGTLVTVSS VL: QSVLTQPPSVSGAPGQRVTISCTSSSSDIGAGLGVHWYQQLPGTAPKLLIEGYYNRPSGVPDRFSGSKSGTSASLTITGLLPEDEGDYYCQSYDSTLSALFGGGTKLTVLG: 149
320-371 (antibody, human IgG1, name in Kabat numbering, V domains shown, human IgG1, lambda) VH: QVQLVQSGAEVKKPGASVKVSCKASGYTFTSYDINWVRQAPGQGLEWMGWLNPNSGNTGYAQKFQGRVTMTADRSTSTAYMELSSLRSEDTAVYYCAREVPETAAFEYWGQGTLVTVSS VL: QSVLTQPPSVSGAPGQRVTISCTSSSSDIGAGLGVHWYQQLPGTAPKLLIEGYYNRPSGVPDRFSGSKSGTSASLTITGLLPEDEGDYYCQSYDGTLYALFGGGTKLTVLG: 92
320-364 (antibody, human IgG1, name in Kabat numbering, V domains shown, human IgG1, lambda) VH: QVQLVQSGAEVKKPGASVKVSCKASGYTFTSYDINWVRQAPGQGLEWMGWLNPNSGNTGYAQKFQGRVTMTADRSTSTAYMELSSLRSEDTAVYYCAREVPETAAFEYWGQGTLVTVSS VL: QSVLTQPPSVSGAPGQRVTISCTSSSSDIGAGLGVHWYQQLPGTAPKLLIEGYYNRPSGVPDRFSGSKSGTSASLTITGLLPEDEGDYYCQSYDGTLAALFGGGTKLTVLG: 124

Origin of the recorded values: patent US20170081400A1
